Task for the reader: assign each of the following compounds its reported Bliss excess.
tested on: OC-314 (Ovarian Carcinoma); test: Bliss excess, mean over the matrix (fraction); higher = more synergy
One number for each entry.

CCN(CCO)CCCOc1ccc2c(Nc3cc(CC(=O)Nc4cccc(F)c4)[nH]n3)ncnc2c1 [AZD2811] + C[C@@H]1COCCN1C2=NC(=NC(=C2)C3(CC3)[S@](=N)(=O)C)C4=C5C=CNC5=NC=C4 [AZD6738] (first compound max 1 µM, 7x7, partner max 10 µM) : 0.0052

I'm hoping you can list Bliss excess for every compound here, please.
1. Cc1c2c(nn1C)CSCc1cc(n(C)n1)CSc1cc(c3ccccc3c1)OCCCc1c(C(=O)O)n(C)c3c-2c(Cl)ccc13 [AZD5991] + Cn1cnc2c(F)c(Nc3ccc(Br)cc3Cl)c(C(=O)NOCCO)cc21 [Selumetinib] (first compound max 1 µM, 7x7, partner max 3 µM)
2. CC(=O)c1c(C)c2cnc(Nc3ccc(N4CCNCC4)cn3)nc2n(C2CCCC2)c1=O [Palbociclib] + Cc1c2c(nn1C)CSCc1cc(n(C)n1)CSc1cc(c3ccccc3c1)OCCCc1c(C(=O)O)n(C)c3c-2c(Cl)ccc13 [AZD5991] (first compound max 10 µM, 7x7, partner max 1 µM)

Response:
-0.0313
-0.023

====

test system: OC-314 (Ovarian Carcinoma); assay: combination Emax (second highest fraction inhibited in the dose matrix, 72 h); higher = more inhibition; extreme values may be limits of the assay
Label rule, in plain words: combination Emax of 0.7 and up is MET, under 0.7 is NOT MET.

CC1(C)CCC(CN2CCN(c3ccc(C(=O)NS(=O)(=O)c4ccc(NCC5CCOCC5)c([N+](=O)[O-])c4)c(Oc4cnc5[nH]ccc5c4)c3)CC2)=C(c2ccc(Cl)cc2)C1 [Venetoclax] + Cc1cc2ncnn2cc1Nc1ncc2c(n1)n(C1CCOCC1)c(=O)n2C [AZD7648] (first compound max 1 µM, 7x7, partner max 10 µM) : NOT MET

Prompt: Does combination Emax meet or surpass 0.7 for C[C@@H](c1ccc2nccn2c1)n1nnc2ncc(-c3cnn(C)c3)nc21 [Savolitinib] + Cc1c2c(nn1C)CSCc1cc(n(C)n1)CSc1cc(c3ccccc3c1)OCCCc1c(C(=O)O)n(C)c3c-2c(Cl)ccc13 [AZD5991] (first compound max 1 µM, 7x7, partner max 1 µM) ?
Response: NOT MET

Prompt: Please check the record COc1cccc(OCCCN)c1-c1cc(Nc2cnc(C#N)cn2)n[nH]1 [Prexasertib] + C[C@@H]1COCCN1C2=NC(=NC(=C2)C3(CC3)[S@](=N)(=O)C)C4=C5C=CNC5=NC=C4 [AZD6738] (first compound max 1 µM, 7x7, partner max 10 µM) and state if its combination Emax is at or above 0.7.
Response: MET

Prompt: State whether the measured combination Emax reaches 0.7, counting equality as reaching it, for COc1nnc2ccc(N3CCC(c4ccc(OCCN5CCN(C)C(=O)[C@H]5C)cc4)CC3)nn12 [AZD5153] + Cc1c2c(nn1C)CSCc1cc(n(C)n1)CSc1cc(c3ccccc3c1)OCCCc1c(C(=O)O)n(C)c3c-2c(Cl)ccc13 [AZD5991] (first compound max 1 µM, 7x7, partner max 1 µM)
Response: MET

Prompt: Could you verify whether the entry CC1(C)CCC(CN2CCN(c3ccc(C(=O)NS(=O)(=O)c4ccc(NCC5CCOCC5)c([N+](=O)[O-])c4)c(Oc4cnc5[nH]ccc5c4)c3)CC2)=C(c2ccc(Cl)cc2)C1 [Venetoclax] + Cn1cnc2c(F)c(Nc3ccc(Br)cc3Cl)c(C(=O)NOCCO)cc21 [Selumetinib] (first compound max 1 µM, 7x7, partner max 3 µM) shows combination Emax of no less than 0.7?
Response: NOT MET

Prompt: Please check the record NC1(C(=O)N[C@@H](CCO)c2ccc(Cl)cc2)CCN(c2ncnc3[nH]ccc23)CC1 [Capivasertib] + CCN(CCO)CCCOc1ccc2c(Nc3cc(CC(=O)Nc4cccc(F)c4)[nH]n3)ncnc2c1 [AZD2811] (first compound max 10 µM, 7x7, partner max 1 µM) and state if its combination Emax is at or above 0.7.
Response: NOT MET

Prompt: Does Cc1nc(-c2cn3c(n2)-c2ccc(-c4cnn(C(C)(C)C(N)=O)c4)cc2OCC3)n(C(C)C)n1 [Taselisib] + O=C(Nc1ccc2[nH]nc(-c3ccncc3)c2c1)[C@@H]1CCN(CC(=O)N2CCN(c3ccc(-c4ncccn4)cc3)CC2)C1 [SCH772984] (first compound max 10 µM, 7x7, partner max 5 µM) have a reported combination Emax of at least 0.7?
Response: MET
